Ref: paper PMC9532755

- experimental.system: human sweet taste receptor TAS1R2/TAS1R3 (Homo sapiens, UniProt Q7RTX0+Q8TE23)
- Construct: expressed in transfected cells; host or cells: HEK293 Flp-In T-Rex cells; Gα15Gi3 and TAS1R2 constitutive, TAS1R3 tetracycline-inducible
- Sequence (Q8TE23 20-839): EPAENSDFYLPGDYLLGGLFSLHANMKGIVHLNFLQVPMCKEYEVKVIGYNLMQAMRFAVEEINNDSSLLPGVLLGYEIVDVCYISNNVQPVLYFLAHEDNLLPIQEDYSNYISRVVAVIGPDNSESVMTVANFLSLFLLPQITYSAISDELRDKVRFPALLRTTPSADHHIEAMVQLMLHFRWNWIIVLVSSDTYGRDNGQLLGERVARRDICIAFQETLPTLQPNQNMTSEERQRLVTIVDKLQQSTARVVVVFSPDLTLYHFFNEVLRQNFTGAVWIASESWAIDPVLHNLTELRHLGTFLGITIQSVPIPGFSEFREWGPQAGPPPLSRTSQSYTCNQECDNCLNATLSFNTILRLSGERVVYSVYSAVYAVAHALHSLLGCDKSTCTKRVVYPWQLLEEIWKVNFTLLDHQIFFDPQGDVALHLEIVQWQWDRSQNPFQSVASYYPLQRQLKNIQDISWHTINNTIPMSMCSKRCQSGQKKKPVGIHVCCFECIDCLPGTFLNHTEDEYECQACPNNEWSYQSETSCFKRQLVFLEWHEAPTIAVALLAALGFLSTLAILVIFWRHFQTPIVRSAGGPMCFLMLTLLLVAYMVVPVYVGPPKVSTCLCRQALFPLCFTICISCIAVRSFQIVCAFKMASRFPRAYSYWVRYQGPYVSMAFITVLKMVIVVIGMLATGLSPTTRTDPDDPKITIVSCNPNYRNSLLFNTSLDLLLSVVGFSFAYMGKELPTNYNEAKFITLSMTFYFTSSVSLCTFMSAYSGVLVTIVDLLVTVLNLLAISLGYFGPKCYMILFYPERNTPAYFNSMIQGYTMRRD
- Sequence (Q7RTX0 21-852): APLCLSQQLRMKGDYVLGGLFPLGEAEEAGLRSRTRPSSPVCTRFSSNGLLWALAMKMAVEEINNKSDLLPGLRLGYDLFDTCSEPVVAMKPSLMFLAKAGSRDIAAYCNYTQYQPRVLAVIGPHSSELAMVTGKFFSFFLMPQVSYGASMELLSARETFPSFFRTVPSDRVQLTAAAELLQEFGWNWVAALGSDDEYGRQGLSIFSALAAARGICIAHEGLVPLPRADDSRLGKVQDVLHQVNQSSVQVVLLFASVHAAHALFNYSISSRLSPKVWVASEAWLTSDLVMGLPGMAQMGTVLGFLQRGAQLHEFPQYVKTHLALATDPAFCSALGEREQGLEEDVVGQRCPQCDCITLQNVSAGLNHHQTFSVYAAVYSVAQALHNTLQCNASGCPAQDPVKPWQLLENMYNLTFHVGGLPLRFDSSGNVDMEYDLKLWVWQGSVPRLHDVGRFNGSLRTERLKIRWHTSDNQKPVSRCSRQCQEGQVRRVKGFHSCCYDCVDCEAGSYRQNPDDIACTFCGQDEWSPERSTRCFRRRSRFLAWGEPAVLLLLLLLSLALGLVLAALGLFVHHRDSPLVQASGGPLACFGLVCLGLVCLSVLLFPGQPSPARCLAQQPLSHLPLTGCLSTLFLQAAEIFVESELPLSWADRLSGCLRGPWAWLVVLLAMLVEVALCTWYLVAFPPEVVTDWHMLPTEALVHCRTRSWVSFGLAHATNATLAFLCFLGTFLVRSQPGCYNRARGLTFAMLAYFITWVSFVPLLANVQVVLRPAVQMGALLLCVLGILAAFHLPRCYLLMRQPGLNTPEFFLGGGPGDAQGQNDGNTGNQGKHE
- assay.procedure: Calcium mobilization assay in HEK293 Flp-In T-Rex-Gα15Gi3-TAS1R2/TAS1R3 cells (FLIPR, Fluo-4)
- Type: cell-based
- stated.conditions: including 20 sec of baseline monitoring prior to agonist application; 1 mM Ace K, 3 mM aspartame, 10 mM cyclamate, 0.3 mM NHDC
Peptide text beside a SMILES is read from it.
endpoint.label: time until reaching the peak amplitude (s)

[
  {
    "compound": "COc1ccc(CCC(=O)c2c(O)cc(O[C@@H]3O[C@H](CO)[C@@H](O)[C@H](O)[C@H]3O[C@@H]3O[C@@H](C)[C@H](O)[C@@H](O)[C@H]3O)cc2O)cc1O [NHDC, neohesperidin dihydrochalcone]",
    "experimental.system": "human sweet taste receptor TAS1R2/TAS1R3 (Homo sapiens, UniProt Q7RTX0+Q8TE23)",
    "unit.abbrev": "s",
    "time until reaching the peak amplitude": 47
  },
  {
    "compound": "COC(=O)[C@H](Cc1ccccc1)NC(=O)[C@@H](N)CC(=O)O [aspartame] (H-Asp-Phe-OMe)",
    "experimental.system": "human sweet taste receptor TAS1R2/TAS1R3 (Homo sapiens, UniProt Q7RTX0+Q8TE23)",
    "unit.abbrev": "s",
    "time until reaching the peak amplitude": 43
  },
  {
    "compound": "O=S(=O)(O)NC1CCCCC1 [cyclamate]",
    "experimental.system": "human sweet taste receptor TAS1R2/TAS1R3 (Homo sapiens, UniProt Q7RTX0+Q8TE23)",
    "unit.abbrev": "s",
    "time until reaching the peak amplitude": 39
  },
  {
    "compound": "CC1=CC(=O)NS(=O)(=O)O1",
    "experimental.system": "human sweet taste receptor TAS1R2/TAS1R3 (Homo sapiens, UniProt Q7RTX0+Q8TE23)",
    "unit.abbrev": "s",
    "time until reaching the peak amplitude": 47
  }
]
